Exercise: state measured solubility change mitosis (log2) for each of the sequences provided.
- Tested on: HeLa Kyoto
- assay-overview: solubility change mitosis vs G1/S (difference of NP-40 vs SDS log2 ratios) (log2 ratio difference); higher = more soluble in mitosis
One number for each entry.

residues	solubility change mitosis (log2)
MVWKRLGALVMFPLQMIYLVVKAAVGLVLPAKLRDLSRENVLITGGGRGIGRQLAREFAERGARKIVLWGRTEKCLKETTEEIRQMGTECHYFICDVGNREEVYQTAKAVREKVGDITILVNNAAVVHGKSLMDSDDDALLKSQHINTLGQFWTTKAFLPRMLELQNGHIVCLNSVLALSAIPGAIDYCTSKASAFAFMESLTLGLLDCPGVSATTVLPFHTSTEMFQGMRVRFPNLFPPLKPETVARRTVEAVQLNQALLLLPWTMHALVILKSILPQAALEEIHKFSGTYTCMNTFKGRT [DHRS3]	-0.135

Request: Param item = MAYAYLFKYIIIGDTGVGKSCLLLQFTDKRFQPVHDLTIGVEFGARMITIDGKQIKLQIWDTAGQESFRSITRSYYRGAAGALLVYDITRRDTFNHLTTWLEDARQHSNSNMVIMLIGNKSDLESRREVKKEEGEAFAREHGLIFMETSAKTASNVEEAFINTAKEIYEKIQEGVFDINNEANGIKIGPQHAATNATHAGNQGGQQAGGGCC [RAB2A] ; retrieve measured solubility change mitosis (log2).
Result: -0.118

* * *

- System: HeLa Kyoto
- assay-overview: solubility change mitosis vs G1/S (difference of NP-40 vs SDS log2 ratios) (log2 ratio difference); higher = more soluble in mitosis
Exercise: state measured solubility change mitosis (log2) for each of the sequences provided.
Numbers only.

residues	solubility change mitosis (log2)
MAAAGWRDGSGQEKYRLVVVGGGGVGKSALTIQFIQSYFVTDYDPTIEDSYTKQCVIDDRAARLDILDTAGQEEFGAMREQYMRTGEGFLLVFSVTDRGSFEEIYKFQRQILRVKDRDEFPMILIGNKADLDHQRQVTQEEGQQLARQLKVTYMEASAKIRMNVDQAFHELVRVIRKFQEQECPPSPEPTRKEKDKKGCHCVIF [RRAS2]	-0.0849
MSFLFSSRSSKTFKPKKNIPEGSHQYELLKHAEATLGSGNLRQAVMLPEGEDLNEWIAVNTVDFFNQINMLYGTITEFCTEASCPVMSAGPRYEYHWADGTNIKKPIKCSAPKYIDYLMTWVQDQLDDETLFPSKIGVPFPKNFMSVAKTILKRLFRVYAHIYHQHFDSVMQLQEEAHLNTSFKHFIFFVQEFNLIDRRELAPLQELIEKLGSKDR [MOB1A]	-0.11

// below: solubility change mitosis (log2) requested for another sequence
Request: Param item = MSLLLLLLLVSYYVGTLGTHTEIKRVAEEKVTLPCHHQLGLPEKDTLDIEWLLTDNEGNQKVVITYSSRHVYNNLTEEQKGRVAFASNFLAGDASLQIEPLKPSDEGRYTCKVKNSGRYVWSHVILKVLVRPSKPKCELEGELTEGSDLTLQCESSSGTEPIVYYWQRIREKEGEDERLPPKSRIDYNHPGRVLLQNLTMSYSGLYQCTAGNEAGKESCVVRVTVQYVQSIGMVAGAVTGIVAGALLIFLLVWLLIRRKDKERYEEEERPNEIREDAEAPKARLVKPSSSSSGSRSSRSGSSSTRSTANSASRSQRTLSTDAAPQPGLATQAYSLVGPEVRGSEPKKVHHANLTKAETTPSMIPSQSRAFQTV [CLMP] ; retrieve measured solubility change mitosis (log2).
Result: -0.0674

* * *

- Test system: HeLa Kyoto;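 further: synchronized HeLa Kyoto cells (double thymidine block for G1/S, nocodazole release for mitosis), protein amounts in NP-40 versus SDS lysates quantified by mass spectrometry, three biological replicates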
- assay-overview: solubility change mitosis vs G1/S (difference of NP-40 vs SDS log2 ratios) (log2 ratio difference); higher = more soluble in mitosis
Rule: solubility change mitosis (log2) of -0.05 or more gives true (1); anything lower gives false (0).

substance	label-class
MACAEFSFHVPSLEELAGVMQKGLKDNFADVQVSVVDCPDLTKEPFTFPVKGICGKTRIAEVGGVPYLLPLVNQKKVYDLNKIAKEIKLPGAFILGAGAGPFQTLGFNSEFMPVIQTESEHKPPVNGSYFAHVNPADGGCLLEKYSEKCHDFQCALLANLFASEGQPGKVIEVKAKRRTGPLNFVTCMRETLEKHYGNKPIGMGGTFIIQKGKVKSHIMPAEFSSCPLNSDEEVNKWLHFYEMKAPLVCLPVFVSRDPGFDLRLEHTHFFSRHGEGGHYHYDTTPDIVEYLGYFLPAEFLYRIDQPKETHSIGRD [C11ORF54]	false (0)
MALKQEMAKSLLKTASLSGRTKLLHQTGLSLYSTSHGFYEEEVKKTLQQFPGGSIDLQKEDNGIGILTLNNPSRMNAFSGVMMLQLLEKVIELENWTEGKGLIVRGAKNTFSSGSDLNAVKSLGTPEDGMAVCMFMQNTLTRFMRLPLISVALVQGWALGGGAEFTTACDFRLMTPESKIRFVHKEMGIIPSWGGTTRLVEIIGSRQALKVLSGALKLDSKNALNIGMVEEVLQSSDETKSLEEAQEWLKQFIQGPPEVIRALKKSVCSGRELYLEEALQNERDLLGTVWGGPANLEAIAKKGKFNK [ECHDC1]	true (1)
MAAQKDQQKDAEAEGLSGTTLLPKLIPSGAGREWLERRRATIRPWSTFVDQQRFSRPRNLGELCQRLVRNVEYYQSNYVFVFLGLILYCVVTSPMLLVALAVFFGACYILYLRTLESKLVLFGREVSPAHQYALAGGISFPFFWLAGAGSAVFWVLGATLVVIGSHAAFHQIEAVDGEELQMEPV [RABAC1]	false (0)

Request: Reported solubility change mitosis (log2) reaches at least -0.05 for MEEPEEPADSGQSLVPVYIYSPEYVSMCDSLAKIPKRASMVHSLIEAYALHKQMRIVKPKVASMEEMATFHTDAYLQHLQKVSQEGDDDHPDSIEYGLGYDCPATEGIFDYAAAIGGATITAAQCLIDGMCKVAINWSGGWHHAKKDEASGFCYLNDAVLGILRLRRKFERILYVDLDLHHGDGVEDAFSFTSKVMTVSLHKFSPGFFPGTGDVSDVGLGKGRYYSVNVPIQDGIQDEKYYQICESVLKEVYQAFNPKAVVLQLGADTIAGDPMCSFNMTPVGIGKCLKYILQWQLATLILGGGGYNLANTARCWTYLTGVILGKTLSSEIPDHEFFTAYGPDYVLEITPSCRPDRNEPHRIQQILNYIKGNLKHVV [HDAC8] ?
Result: false (0)

Request: Lookup MSEEQFGGDGAAAAATAAVGGSAGEQEGAMVAATQGAAAAAGSGAGTGGGTASGGTEGGSAESEGAKIDASKNEEDEGHSNSSPRHSEAATAQREEWKMFIGGLSWDTTKKDLKDYFSKFGEVVDCTLKLDPITGRSRGFGFVLFKESESVDKVMDQKEHKLNGKVIDPKRAKAMKTKEPVKKIFVGGLSPDTPEEKIREYFGGFGEVESIELPMDNKTNKRRGFCFITFKEEEPVKKIMEKKYHNVGLSKCEIKVAMSKEQYQQQQQWGSRGGFAGRARGRGGGPSQNWNQGYSNYWNQGYGNYGYNSQGYGGYGGYDYTGYNNYYGYGDYSNQQSGYGKVSRRGGHQNSYKPY [HNRNPD]
Result: true (1)

Request: Lookup MAKTYDYLFKLLLIGDSGVGKTCVLFRFSEDAFNSTFISTIGIDFKIRTIELDGKRIKLQIWDTAGQERFRTITTAYYRGAMGIMLVYDITNEKSFDNIRNWIRNIEEHASADVEKMILGNKCDVNDKRQVSKERGEKLALDYGIKFMETSAKANINVENAFFTLARDIKAKMDKKLEGNSPQGSNQGVKITPDQQKRSSFFRCVLL [RAB8A]
Result: false (0)

Request: Lookup MFISLWEFFYGHFFRFWMKWLLRQMTGKCELQRIFDTYVGAQRTHRIENSLTYSKNKVLQKATHVVQSEVDKYVDDIMKEKNINPEKDASFKICMKMCLLQITGYKQLYLDVESVRKRPYDSDNLQHEELLMKLWNLLMPTKKLNARISKQWAEIGFQGDDPKTDFRGMGILGLINLVYFSENYTSEAHQILSRSNHPKLGYSYAIVGINLTEMAYSLLKSEALKFHLYNLVPGIPTMEHFHQFYCYLVYEFDKFWFEEEPESIMYFNLYREKFHEKIKGLLLDCNVALTLKV [ELMOD2]
Result: false (0)

Request: Lookup RABGAP1
Result: false (0)

Request: Lookup MRLTPRALCSAAQAAWRENFPLCGRDVARWFPGHMAKGLKKMQSSLKLVDCIIEVHDARIPLSGRNPLFQETLGLKPHLLVLNKMDLADLTEQQKIMQHLEGEGLKNVIFTNCVKDENVKQIIPMVTELIGRSHRYHRKENLEYCIMVIGVPNVGKSSLINSLRRQHLRKGKATRVGGEPGITRAVMSKIQVSERPLMFLLDTPGVLAPRIESVETGLKLALCGTVLDHLVGEETMADYLLYTLNKHQRFGYVQHYGLGSACDNVERVLKSVAVKLGKTQKVKVLTGTGNVNIIQPNYPAAARDFLQTFRRGLLGSVMLDLDVLRGHPPAETLP [MTG1]
Result: false (0)

Request: Lookup MMDPCSVGVQLRTTNECHKTYYTRHTGFKTLQELSSNDMLLLQLRTGMTLSGNNTICFHHVKIYIDRFEDLQKSCCDPFNIHKKLAKKNLHVIDLDDATFLSAKFGRQLVPGWKLCPKCTQIINGSVDVDTEDRQKRKPESDGRTAKALRSLQFTNPGRQTEFAPETGKREKRRLTKNATAGSDRQVIPAKSKVYDSQGLLIFSGMDLCDCLDEDCLGCFYACPACGSTKCGAECRCDRKWLYEQIEIEGGEIIHNKHAG [ARL14EP]
Result: true (1)

Request: Lookup MQAALEVTARYCGRELEQYGQCVAAKPESWQRDCHYLKMSIAQCTSSHPIIRQIRQACAQPFEAFEECLRQNEAAVGNCAEHMRRFLQCAEQVQPPRSPATVEAQPLPAS [CHCHD5]
Result: true (1)
